This collection of values is drawn from PubChem BioAssay (NCI).

- System: MDA-MB-231 breast
- ASSAY_PROTOCOL: NCI tumour cell line growth inhibition, 48 h
VALUE_TYPE: TGI

Known TGI results, listed for orientation:
{"COMPOUND": "C/C=C1\\CC2C(=O)CCC2C2c3ccccc3OC12 (configuration not stated)", "SYSTEM_TESTED": "MDA-MB-231 breast", "VALUE_TYPE": "TGI", "EXPERIMENTAL_VALUE": "> 100 µM"}
{"COMPOUND": "CC(C)CC(=O)NC(C(=O)NC(C(=O)NC(CC(C)C)C(O)CC(=O)NC(C)C(=O)NC(CC(C)C)C(O)CC(=O)O)C(C)C)C(C)C (configuration not stated)", "SYSTEM_TESTED": "MDA-MB-231 breast", "VALUE_TYPE": "TGI", "EXPERIMENTAL_VALUE": "> 100 µM"}

Give one value of TGI per listed compound.
1. COc1cc2ncnc(Nc3cccc(Cl)c3F)c2cc1OC(=O)N1CCN(C)C[C@H]1C
2. c1ccc(C(NC2=NCCO2)c2ccccc2)cc1

1. > 59.5 µM
2. > 10 µM

Give one value of TGI per listed compound.
1. NC(N)=NC(N)=Nc1cnccn1
2. COC(=O)C(C)(C)[C@@H]1OC(=O)N(S(=O)(=O)c2c(C)cc(C)cc2C)[C@H]1C(C)C

["> 100 µM", "> 100 µM"]

Fill in the blank: the reported TGI of Cc1ccc(-c2n[nH]c(=O)n2NC(=O)c2ccccc2C(=O)O)cc1 is ____. > 100 µM

----------
Kindly state TGI for each of the entries shown.
- System: M14 melanoma
- ASSAY_PROTOCOL: NCI tumour cell line growth inhibition, 48 h

Known TGI results, listed for orientation:
{"MOLECULE": "C[C@]12CC[C@H]3[C@@H](CC=C4C[C@@H](O)CC[C@@]43C)[C@@H]1C/C(=C/c1ccccc1)[C@@H]2O", "SYSTEM_TESTED": "M14 melanoma", "VALUE_TYPE": "TGI", "EXPERIMENTAL_VALUE": "> 77.8 µM"}
{"MOLECULE": "CONC(C)=O", "SYSTEM_TESTED": "M14 melanoma", "VALUE_TYPE": "TGI", "EXPERIMENTAL_VALUE": "> 100 µM"}
{"MOLECULE": "COC(=O)C1=COC(OC2OC(CO)C(O)C(O)C2O)C2C3CN4CCc5c([nH]c6ccccc56)C4(CC12)O3 (stereo not given)", "SYSTEM_TESTED": "M14 melanoma", "VALUE_TYPE": "TGI", "EXPERIMENTAL_VALUE": "> 100 µM"}
{"MOLECULE": "C[C@]12CC[C@@H]3c4cc(O)c(O)cc4CC[C@H]3[C@@H]1CC[C@@H]2O", "SYSTEM_TESTED": "M14 melanoma", "VALUE_TYPE": "TGI", "EXPERIMENTAL_VALUE": "> 100 µM"}

Now, please, on to the next molecule.
Fill in the blank: the reported TGI of CC(N)(/C=C/c1ccccc1)C(=O)O (stereo not given) is ____. > 100 µM

----------
- Test system: UACC-257 melanoma
- ASSAY_PROTOCOL: NCI tumour cell line growth inhibition, 48 h
Kindly state TGI for each of the entries shown.

Known TGI results, listed for orientation:
{"MOLECULE": "C=CCN1COc2c(cc3c4c(cccc24)C(=O)O3)C1", "SYSTEM_TESTED": "UACC-257 melanoma", "TGI": "60.7 µM"}
{"MOLECULE": "Cn1ccc(C(=O)NCCN(CCNC(=O)c2ccn(C)c(=O)c2O)CCNC(=O)c2ccn(C)c(=O)c2O)c(O)c1=O", "SYSTEM_TESTED": "UACC-257 melanoma", "TGI": "> 100 µM"}
{"MOLECULE": "COc1cc2c(cc1Cc1cccc(Cl)c1F)c(=O)c(C(=O)O)cn2[C@@H](CO)C(C)C", "SYSTEM_TESTED": "UACC-257 melanoma", "TGI": "14 µM"}
{"MOLECULE": "Cc1ccc(C(=O)Cn2c(C(=O)/C=C/c3cccs3)nc3ccccc32)cc1", "SYSTEM_TESTED": "UACC-257 melanoma", "TGI": "> 100 µM"}
{"MOLECULE": "CCOP12(OCC)NC(=O)OC1(C(F)(F)F)c1ccccc1O2 (stereo unspecified)", "SYSTEM_TESTED": "UACC-257 melanoma", "TGI": "> 100 µM"}

Give one value of TGI per listed molecule.
1. CCOC(=O)C(C(=O)OCC)c1ccc([N+](=O)[O-])o1
2. CC(C)(C)OC(=O)NC(Cc1ccc(O)cn1)C(=O)O (stereo unspecified)
3. OCCCNc1ncnc2[nH]ncc12
4. CC(=O)Nc1c(I)c(NC(C)=O)c(I)c(C(=O)O)c1I
5. COC(=O)C1=COC(OC2OC(CO)C(O)C(O)C2O)C2C3CN4CCc5c([nH]c6ccccc56)C4(CC12)O3 (stereo unspecified)
6. COC(=O)c1ccccc1NC(=NC1CCCCCC1)NS(=O)(=O)c1ccc(C)cc1
7. COCCNc1ccc2c3c(cccc13)C(=O)N(CCN(C)C)C2=O
8. CCSc1cc2c(cc1O)CC[C@@H]1[C@@H]2CC[C@]2(C)[C@@H](O)CC[C@@H]12

["28.1 µM", "> 100 µM", "> 100 µM", "> 100 µM", "> 100 µM", "> 100 µM", "> 25 µM", "30.2 µM"]
